# assay system: S3S23
# Sequence (O00161 whole entry): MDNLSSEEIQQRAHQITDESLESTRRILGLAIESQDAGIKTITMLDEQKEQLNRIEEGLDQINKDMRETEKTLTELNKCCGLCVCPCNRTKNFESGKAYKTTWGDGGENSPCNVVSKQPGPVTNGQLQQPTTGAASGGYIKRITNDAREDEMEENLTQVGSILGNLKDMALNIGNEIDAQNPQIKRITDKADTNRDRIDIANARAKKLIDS
observed property: Tm (°C)

binder: VAMP5 (protein) VAMP5: AGKELKQCQQQADEVTEIMLNNFDKVLERHGKLAELEQRSDQLLDMSSAFSKTTKTLAQQKRWENIRCR
measure unit: °C
reported result: 52

binder: VAMP7 (protein) VAMP7: AILFAVVARGTTILAKHAWCGGNFLEVTEQILAKIPSENNKLTYSHGNYLFHYICQDRIVYLCITDDDFERSRAFSFLNEVKKRFQTTYGSRAQTALPYAMNSEFSSVLAAQLKHHSENKSLDKVMETQAQVDELKGIMVRNIDLVAQRGERLELLIDKTENLVDSSVTFKTTSRNLARAMCMKNIK
measure unit: °C
reported result: 50

binder: VAMP8 (protein) VAMP8: EEASGSAGNDRVRNLQSEVEGVKNIMTQNVERILSRGENLDHLRNKTEDLEATSEHFKTTSQKVARKFWWKNVK
measure unit: °C
reported result: 56

binder: VAMP4 (protein) VAMP4: PPKFKRHLNDDDVTGSVKSERRNLLEDDSDEEEDFFLRGPSGPRFGPRNDKIKHVQNQVDEVIDVMQENITKVIERGERLDELQDKSESLSDNATAFSNRSKQLRRQMWWRGCK
measure unit: °C
reported result: 57

Numbers sourced from patent US20110038892A1.
